Every entry's value here was drawn from the METLIN SMRT retention time set (Domingo-Almenara et al. 2019).

assay: gradient 5% acetonitrile 3 min, to 50% in 2 min, to 85% in 15 min, held 3 min, 100 µL/min; settings: column: Zorbax Extend-C18 2.1 x 50 mm; eluents: water / acetonitrile, 0.1% formic acid
Give measured RP-LC retention time for each item. Keep answers brief.
Include the unit right after the number.

> print(dat)
                              compound  readout.value
1  CCc1cc(C(=O)Nc2cccc(OC)c2)nc2ccnn12          985 s

Kindly give each listed record's RP-LC retention time.
1. CN(C)c1ccc(CNC(=O)c2nnc(-c3ccc(S(=O)(=O)N(C)C)cc3)o2)cc1
2. CN1C(=O)C(F)=C[C@]2(C)[C@H]3CC[C@]4(C)[C@@H](C(=O)NCc5nc6ncccc6[nH]5)CC[C@H]4[C@@H]3CC[C@@H]12

Reply:
["658 s", "719 s"]

Kindly give each listed record's RP-LC retention time.
1. CCCCCCCCCCNCCSSCc1ccc(Cl)cc1
2. CCC(C)NC(=O)N1CC(n2cc(C(=O)N3CCOCC3)nn2)C1 (configuration not stated)
3. COc1ccc2c(c1)c(CC(=O)OCC(=O)O)c(C)n2C(=O)c1ccc(Cl)cc1
4. CCCN(C)C(=O)C1CCN(c2cnn(Cc3ccccc3)c(=O)c2)CC1
5. Cc1nn(CC(=O)NCCCN2CCCCC2)c(=O)c2nc(-c3ccccc3)sc12
6. Cc1nnc2c(=O)n(CC(=O)NCc3ccc(F)cc3F)c3cccnc3n12
7. CCCNC(=O)Cn1nc2cc(-c3ccccc3)nc(C)n2c1=O

Reply:
1120 s
608 s
958 s
728 s
627 s
680 s
766 s

Kindly give each listed record's RP-LC retention time.
1. Cn1cccc1C(=O)N1CC[C@H](n2c(=O)n(C)c3cccnc32)C1
2. CNC(=O)c1ccc2c(c1)CCCN2C(=O)c1cccc(Cl)c1

Reply:
1: 695 s; 2: 746 s

###

Give measured RP-LC retention time for each item. Keep answers brief.
assay: gradient 5% acetonitrile 3 min, to 50% in 2 min, to 85% in 15 min, held 3 min, 100 µL/min; settings: column: Zorbax Extend-C18 2.1 x 50 mm; eluents: water / acetonitrile, 0.1% formic acid
Give bare numbers, in s.

Below are worked cases with known answers.
> print(dat)
                                   compound  readout.value
1  Cc1cc(C)cc(C(=O)NC2CCN(c3cc(-c4ccc(F)cc4)[nH]n3)C2)c1 (centres undefined)            795
2  CCCCN(C)C(=O)Cn1ccn2nc(-c3ccccc3)c(CO)c2c1=O            776
3  Cc1cccc(Cn2c(=O)n(CCNC(=O)CC(C)C)c3ncccc32)c1            800

Ask: Request the reported RP-LC retention time associated with Cc1noc2nc(C)n(CC(=O)NCc3cccc(Br)c3)c(=O)c12
Reply: 805

###

experiment: gradient 5% acetonitrile 3 min, to 50% in 2 min, to 85% in 15 min, held 3 min, 100 µL/min; conditions: column: Zorbax Extend-C18 2.1 x 50 mm; eluents: water / acetonitrile, 0.1% formic acid
Give measured RP-LC retention time for each item. Keep answers brief.
Include the unit right after the number.

> print(dat)
                                     smiles  readout.value
1  O=C(Cc1cccs1)Nc1ccc(N2CCN(C3CCCCC3)C2=O)nc1          804 s

Kindly give each listed record's RP-LC retention time.
1. COc1cccc(CNC(=O)C2=C3CCCN3c3ccccc3S2(=O)=O)c1
2. Cc1csc(NC(=O)Cn2c(=O)n(C(C)C)c3ccc(-c4noc(C)n4)cc32)n1

Reply:
1: 811 s; 2: 780 s
